# tgt: the molecule itself
# experiment_description: not stated; assembly of the purified point mutants in solution (Supplementary Fig. S3)
parameter: stoichiometry N

PvuRts1I N217A mutant (enzyme, UniProt Q52612 1-293, looked up, PvuRts1I with a point mutation; source: E. coli Rosetta2 (DE3), purified under identical conditions to wild-type PvuRts1I) MSKTDYILRALSKISHKRWEHYIINRVVHTLDDPDIEFVCQQCIRKEGHLGKIYLADLLFPQLNLYLEIDEAHHDSNDARKADAVRRLDIVEATGFQEERIPASNITLSEVNKLVDEFVRLVKDKKEELENQGLFFRWDYDERYSAKKHINTGYMAVGPNSVFRYHRDALQCFGYRREGHHQSGGWALPAEVAQSIGLTGRVMVWFPRLYEAGEWKAALSADGNKITEQSLNATRNYQETWDYRIVMAHSRDELNRTLYRFLGVFAIDVDKSSDEVKVFSRVYSRVNVYRSQN = 2

[in] Hello, please tell me recorded stoichiometry N for this one: PvuRts1I N217K mutant (enzyme, UniProt Q52612 1-293, looked up, PvuRts1I with a point mutation; source: E. coli Rosetta2 (DE3), purified under identical conditions to wild-type PvuRts1I) MSKTDYILRALSKISHKRWEHYIINRVVHTLDDPDIEFVCQQCIRKEGHLGKIYLADLLFPQLNLYLEIDEAHHDSNDARKADAVRRLDIVEATGFQEERIPASNITLSEVNKLVDEFVRLVKDKKEELENQGLFFRWDYDERYSAKKHINTGYMAVGPNSVFRYHRDALQCFGYRREGHHQSGGWALPAEVAQSIGLTGRVMVWFPRLYEAGEWKKALSADGNKITEQSLNATRNYQETWDYRIVMAHSRDELNRTLYRFLGVFAIDVDKSSDEVKVFSRVYSRVNVYRSQN
[out] 2
